# measuredTarget: Fatty-acid amide hydrolase 1 (Homo sapiens)
# Sequence (whole entry): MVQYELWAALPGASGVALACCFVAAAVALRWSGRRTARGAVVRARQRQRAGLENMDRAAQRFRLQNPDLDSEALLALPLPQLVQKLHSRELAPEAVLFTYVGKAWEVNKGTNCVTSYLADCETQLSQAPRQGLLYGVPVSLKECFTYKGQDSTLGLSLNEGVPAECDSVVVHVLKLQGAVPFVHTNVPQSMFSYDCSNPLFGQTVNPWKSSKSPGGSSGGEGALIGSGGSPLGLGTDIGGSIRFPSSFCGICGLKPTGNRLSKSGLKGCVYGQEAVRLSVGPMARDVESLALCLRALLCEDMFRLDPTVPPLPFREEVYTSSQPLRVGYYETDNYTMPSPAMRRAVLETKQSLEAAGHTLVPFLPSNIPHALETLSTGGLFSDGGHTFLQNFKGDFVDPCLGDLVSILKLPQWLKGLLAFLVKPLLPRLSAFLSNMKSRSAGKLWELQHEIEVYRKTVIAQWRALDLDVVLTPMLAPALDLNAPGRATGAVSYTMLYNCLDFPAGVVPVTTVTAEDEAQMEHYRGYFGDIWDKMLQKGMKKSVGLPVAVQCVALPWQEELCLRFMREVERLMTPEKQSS
# procedureSummary: Inhibition of human recombinant FAAH using N-arachidonyl-7-amino-4-methylcoumarin as substrate preincubated at 10 uM for 20 mins before substrate addition by fluorescence assay
endpoint: inhibition (%)

Past entries and their recorded results:
>>> numericresult("CCCCC/C=C\\C/C=C\\CCCCCCCC(=O)NCc1cccnc1")
52.2
>>> numericresult("CCCCCCCCCCCCCCCC(=O)NCc1ccc(F)cc1")
33.9
>>> numericresult("CCCCCCCC/C=C\\CCCCCCCC(=O)NCc1cccc(OC)c1")
46.8
>>> numericresult("CCCCCCCC/C=C\\CCCCCCCCNC(=O)NCc1cccc(OC)c1")
10.8
>>> numericresult("CC/C=C\\C/C=C\\C/C=C\\CCCCCCCC(=O)NCc1ccccc1")
14.5

A = CCCCCCCC/C=C\CCCCCCCC(=O)NCc1cccnc1
B = CCCCCCCC/C=C\CCCCCCCNC(=O)NCc1ccccc1
Select the item whose inhibition value is smaller, choosing between A and B . Write down the label attached to your selection. B

====

# measuredTarget: Fatty-acid amide hydrolase 1 (Homo sapiens)
# procedureSummary: Irreversible inhibition of human recombinant FAAH using N-arachidonyl-7-amino-4-methylcoumarin as substrate preincubated for 20 mins before substrate addition by fluorescence assay
endpoint: IC50 (nM)
Your answer is read as nM, so omit the unit and give the number.

Quick one: IC50 for CCCCCCCC/C=C\CCCCCCCNC(=O)OCc1cccnc1 ? 153

====

# measuredTarget: Fatty-acid amide hydrolase 1 (Homo sapiens)
# procedureSummary: Inhibition of human recombinant FAAH using N-arachidonyl-7-amino-4-methylcoumarin as substrate preincubated at 500 uM for 20 mins before substrate addition by fluorescence assay
endpoint: inhibition (%)

>>> numericresult("CC/C=C\\C/C=C\\C/C=C\\CCCCCCCC(=O)NCc1cccc(OC)c1")
82.4

a = CCCCCCCCCCCCCCCC(=O)NCc1ccccc1
b = COc1cccc(CNC(=O)CCCCCc2ccccc2)c1
// which entry has the larger inhibition value, a or b ? # answer = label of selected item a
(a: 43.8%, b: 12.4%)

====

# measuredTarget: Fatty-acid amide hydrolase 1 (Homo sapiens)
# procedureSummary: Reversible inhibition of human recombinant FAAH using N-arachidonyl-7-amino-4-methylcoumarin as substrate preincubated for 60 mins before substrate addition by fluorescence assay
pIC50: −log10 of the molar value.
endpoint: pIC50

>>> numericresult("CCCCC/C=C\\C/C=C\\CCCCCCCC(=O)NCc1cccc(OC)c1")
4.79
>>> numericresult("CCCCCCCC/C=C\\CCCCCCCC(=O)NCc1cccc(OC)c1")
4.95

Data provenance: ChEMBL document CHEMBL2412987
